Provenance of the data: patent US20070293553A1

Measurement type: melting point

Below, 6 compounds whose answers are already recorded.
{"Chemical structure": "Cc1ccc(-c2ccc(NC(=O)Nc3ccccc3C(F)(F)F)c(-c3nnn[nH]3)c2)cc1", "melting point": "259 to 261 °C"}
{"Chemical structure": "O=C(Nc1cc(Cl)cc(Cl)c1)Nc1ccc(-c2cccc(C(F)(F)F)c2)cc1-c1nnn[nH]1", "melting point": "236 to 239 °C"}
{"Chemical structure": "O=C(Nc1cccc(Br)c1)Nc1ccc(-c2ccc(C(F)(F)F)cc2)cc1-c1nnn[nH]1", "melting point": "203 to 210 °C"}
{"Chemical structure": "O=C(Nc1ccccc1Br)Nc1ccc(-c2ccc(Cl)cc2)cc1-c1nnn[nH]1", "melting point": "255 to 256 °C"}
{"Chemical structure": "O=C(Nc1cccc(C(F)(F)F)c1)Nc1ccc(-c2ccc(Cl)cc2)cc1-c1nnn[nH]1", "melting point": "253 to 254 °C"}
{"Chemical structure": "O=C(Nc1ccc(F)c(C(F)(F)F)c1)Nc1ccc(-c2ccc(C(F)(F)F)cc2)cc1-c1nnn[nH]1", "melting point": "247 to 249 °C"}

Query (compound): O=C(Nc1ccc(F)c(C(F)(F)F)c1)Nc1ccc(-c2ccc(Cl)cc2)cc1-c1nnn[nH]1 ; field requested: melting point
243 to 245 °C

###

Measurement type: melting point

Solved cases (6 shown):
{"Chemical structure": "O=C(Nc1cc(F)cc(F)c1)Nc1ccc(-c2ccc(Cl)cc2)cc1-c1nnn[nH]1", "melting point": "250 to 251 °C"}
{"Chemical structure": "O=C(Nc1ccc(F)c(C(F)(F)F)c1)Nc1ccc(-c2ccc(F)cc2)cc1-c1nnn[nH]1", "melting point": "253 to 254 °C"}
{"Chemical structure": "O=C(Nc1cc(C(F)(F)F)cc(C(F)(F)F)c1)Nc1ccc(-c2ccc(C(F)(F)F)cc2)cc1-c1nnn[nH]1", "melting point": "246 to 248 °C"}
{"Chemical structure": "O=C(Nc1cc(Cl)cc(Cl)c1)Nc1ccc(-c2ccc(OC(F)(F)F)cc2)cc1-c1nnn[nH]1", "melting point": "224 to 225 °C"}
{"Chemical structure": "O=C(Nc1ccc(-c2ccc(Cl)cc2)cc1-c1nnn[nH]1)Nc1ccccc1C(F)(F)F", "melting point": "290 to 292 °C"}
{"Chemical structure": "O=C(Nc1ccccc1Cl)Nc1ccc(-c2ccc(C(F)(F)F)cc2)cc1-c1nnn[nH]1", "melting point": "254 to 255 °C"}

What melting point value was documented for this molecule, O=C(Nc1ccccc1Br)Nc1ccc(-c2ccc(C(F)(F)F)cc2)cc1-c1nnn[nH]1 ?
242 to 243 °C

Now consider O=C(Nc1cc(-c2ccc(F)cc2)cc(-c2nnn[nH]2)c1)Nc1cccc(C(F)(F)F)c1 .
256 to 258 °C

Entry to check: O=C(Nc1ccccc1Cl)Nc1ccc(-c2ccc(Cl)cc2)cc1-c1nnn[nH]1
255 to 257 °C

Continue with O=C(Nc1ccc(-c2ccc(F)cc2)cc1-c1nnn[nH]1)Nc1ccccc1C(F)(F)F
256 to 258 °C

Same lookup for O=C(Nc1ccccc1F)Nc1ccc(-c2ccc(Cl)cc2)cc1-c1nnn[nH]1 , please.
257 to 259 °C

###

# melting point per record follows

The cases that follow already have their melting point on record.
{"Chemical structure": "O=C(Nc1ccc(F)c(C(F)(F)F)c1)Nc1ccc(-c2cccc(C(F)(F)F)c2)cc1-c1nnn[nH]1", "Measurement type": "melting point", "Result": "254 to 255 °C"}
{"Chemical structure": "O=C(Nc1ccccc1Br)Nc1ccc(-c2ccc(F)cc2)cc1-c1nnn[nH]1", "Measurement type": "melting point", "Result": "256 to 258 °C"}
{"Chemical structure": "COc1ccc(-c2ccc(NC(=O)Nc3cc(F)cc(F)c3)c(-c3nnn[nH]3)c2)cc1", "Measurement type": "melting point", "Result": "129 to 133 °C"}
{"Chemical structure": "O=C(Nc1cc(C(F)(F)F)cc(C(F)(F)F)c1)Nc1ccc(-c2ccc(F)cc2)cc1-c1nnn[nH]1", "Measurement type": "melting point", "Result": "251 to 253 °C"}
{"Chemical structure": "O=C(Nc1cc(F)cc(F)c1)Nc1ccc(-c2cccc(C(F)(F)F)c2)cc1-c1nnn[nH]1", "Measurement type": "melting point", "Result": "255 to 257 °C"}

Moving on to the next molecule.
What melting point value was documented for this molecule, O=C(Nc1cc(C(F)(F)F)cc(C(F)(F)F)c1)Nc1ccc(-c2ccc(OC(F)(F)F)cc2)cc1-c1nnn[nH]1 ?
238 to 240 °C

###

This section presents molecules with their documented melting point values.

Reference set (6 entries):
{"Molecule": "O=C(Nc1cc(Cl)cc(Cl)c1)Nc1ccc(-c2ccc(Cl)cc2)cc1-c1nnn[nH]1 [Compound 3-4]", "Result": "231 to 234 °C"}
{"Molecule": "O=C(Nc1ccc(-c2ccc(C(F)(F)F)cc2)cc1-c1nnn[nH]1)Nc1ccccc1C(F)(F)F [Compound 3-18]", "Result": "240 to 243 °C"}
{"Molecule": "O=C(Nc1cc(C(F)(F)F)cc(C(F)(F)F)c1)Nc1ccc(-c2cccc(C(F)(F)F)c2)cc1-c1nnn[nH]1 [Compound 3-40]", "Result": "250 to 252 °C"}
{"Molecule": "O=C(Nc1cc(F)cc(F)c1)Nc1ccc(-c2ccc(OC(F)(F)F)cc2)cc1-c1nnn[nH]1 [Compound 3-35]", "Result": "238 to 241 °C"}
{"Molecule": "COc1ccc(-c2ccc(NC(=O)Nc3cc(C(F)(F)F)cc(C(F)(F)F)c3)c(-c3nnn[nH]3)c2)cc1 [Compound 3-42]", "Result": "219 to 221 °C"}
{"Molecule": "O=C(Nc1cc(F)cc(F)c1)Nc1ccc(-c2ccc(C(F)(F)F)cc2)cc1-c1nnn[nH]1 [Compound 3-7]", "Result": "245 to 247 °C"}

Look at this molecule and give its reported melting point. O=C(Nc1ccc(Cl)c(C(F)(F)F)c1)Nc1ccc(-c2ccc(F)cc2)cc1-c1nnn[nH]1 [Compound 3-9]
247 to 249 °C

Try this molecule too: O=C(Nc1cc(Cl)cc(Cl)c1)Nc1ccc(-c2ccc(F)cc2)cc1-c1nnn[nH]1 [Compound 3-10]
241 to 243 °C

Try this molecule too: O=C(Nc1ccc(Cl)c(C(F)(F)F)c1)Nc1ccc(-c2ccc(Cl)cc2)cc1-c1nnn[nH]1 [Compound 3-3]
242 to 243 °C

And what about the molecule O=C(Nc1cc(C(F)(F)F)cc(C(F)(F)F)c1)Nc1ccc(-c2ccc(Cl)cc2)cc1-c1nnn[nH]1 [Compound 3-14] ?
230 to 233 °C

Same thing, different molecule: Cc1ccc(-c2ccc(NC(=O)Nc3ccccc3F)c(-c3nnn[nH]3)c2)cc1 [Compound 3-27]
260 to 262 °C

Another molecule to check: O=C(Nc1cc(F)cc(F)c1)Nc1ccc(-c2ccc(F)cc2)c(-c2nnn[nH]2)c1 [Compound 3-11]
255 to 256 °C

Next record, please: O=C(Nc1ccc(Cl)cc1)Nc1ccc(-c2ccc(C(F)(F)F)cc2)cc1-c1nnn[nH]1 [Compound 3-44]
232 to 234 °C

Proceed to O=C(Nc1ccccc1Cl)Nc1ccc(-c2ccc(F)cc2)cc1-c1nnn[nH]1 [Compound 3-33]
255 to 257 °C

Follow-up item: O=C(Nc1cc(Cl)cc(Cl)c1)Nc1ccc(-c2ccc(C(F)(F)F)cc2)cc1-c1nnn[nH]1 [Compound 3-6]
226 to 230 °C

Input Cc1ccc(-c2ccc(NC(=O)Nc3ccccc3Br)c(-c3nnn[nH]3)c2)cc1 [Compound 3-29]
255 to 257 °C

Would you mind doing O=C(Nc1ccccc1F)Nc1ccc(-c2ccc(F)cc2)cc1-c1nnn[nH]1 [Compound 3-26] as well?
263 to 264 °C

###

Examples of molecules with documented melting point follow.

Please review the following examples before continuing.
{"Chemical structure": "O=C(Nc1ccccc1F)Nc1ccc(-c2ccc(C(F)(F)F)cc2)cc1-c1nnn[nH]1", "Measurement type": "melting point", "Result": "251 to 252 °C"}
{"Chemical structure": "COc1ccc(-c2ccc(NC(=O)Nc3cc(Cl)cc(Cl)c3)c(-c3nnn[nH]3)c2)cc1", "Measurement type": "melting point", "Result": "200 to 201 °C"}

Continue with the molecule presented below.
Entry under review: Cc1ccc(-c2ccc(NC(=O)Nc3ccccc3Cl)c(-c3nnn[nH]3)c2)cc1 . Reported melting point?
261 to 263 °C
